- System: Calf thymus DNA
- Test Protocol: Binding affinity to calf thymus DNA by UV-vis spectrophotometric method
- Type: nucleic-acid assay
- Condition Details: Bos taurus
Assay Endpoint: log Ks

## Task // Input: "Cl.Cl.Cl.N=C(N)c1ccc2nc(-c3ccc(Oc4ccnc5cc(Cl)ccc45)cc3)[nH]c2c1" . Output its log Ks only.
## Result 6.83

## Task // Input: "CC(C)NC(=N)c1ccc2nc(-c3ccc(Oc4ccnc5cc(Cl)ccc45)cc3)[nH]c2c1.Cl.Cl.Cl" . Output its log Ks only.
## Result 7.87

## Task // Input: "Cl.Cl.Cl.N=C(N)c1ccc2nc(-c3ccc(OCCNc4ccnc5cc(Cl)ccc45)cc3)[nH]c2c1" . Output its log Ks only.
## Result 6.72
